Test: Protein binding in rabbit
Type: ADME, Oryctolagus cuniculus
Conditions: read-out: PB (converted)
test-readout: fraction unbound
Please reply with the number alone, leaving off any unit.

Qu. Give me measured fraction unbound, please, for this compound: Cc1cc(N(C)C(=O)[C@H]2CC[C@H](Oc3cccc(CO)c3)CC2)ccc1CN1CCN[C@@H](C)C1
Ans. 0.335

---

Target: Motilin receptor (Homo sapiens, UniProt O43193)
Sequence (O43193 whole entry): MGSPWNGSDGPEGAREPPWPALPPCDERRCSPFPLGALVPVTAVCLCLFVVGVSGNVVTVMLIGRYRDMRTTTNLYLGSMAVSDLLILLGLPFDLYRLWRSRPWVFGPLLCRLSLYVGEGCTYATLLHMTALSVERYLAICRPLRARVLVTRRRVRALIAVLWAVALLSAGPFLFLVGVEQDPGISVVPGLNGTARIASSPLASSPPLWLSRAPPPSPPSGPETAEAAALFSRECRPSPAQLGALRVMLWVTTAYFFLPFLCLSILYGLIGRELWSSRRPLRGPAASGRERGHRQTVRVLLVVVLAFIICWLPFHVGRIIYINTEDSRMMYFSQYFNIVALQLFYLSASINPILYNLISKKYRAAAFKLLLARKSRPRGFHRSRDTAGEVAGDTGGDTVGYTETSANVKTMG
Assay: Agonist activity at human GPR38 expressed in COS-7 cells
So I've got a bunch of molecules here, and I need their pEC50 values.
Field pEC50 (float): negative decimal logarithm of the concentration in molar.

Qu. Fill in reported pEC50 for this entry: Cc1cc(N(C)C(=O)[C@H]2CC[C@H](Oc3ccc(F)cn3)CC2)ccc1CN1CCN[C@@H](C)C1
Ans. 8.34

Qu. In one line, give reported pEC50 of the entry Cc1cc(N(C)C(=O)[C@H]2CC[C@H](Oc3cc(CO)ccc3C)CC2)ccc1CN1CCN[C@@H](C)C1 .
Ans. 8.25

Qu. Item Cc1cc(N(C)C(=O)[C@H]2CC[C@H](Oc3cccc(CO)c3)CC2)ccc1CN1CCN[C@@H](C)C1 : provide pEC50
Ans. 8.28

Qu. Specify reported pEC50 for the molecule shown: Cc1cc(N(C)C(=O)[C@H]2CC[C@H](Oc3ccc(F)c(CO)c3)CC2)ccc1CN1CCN[C@@H](C)C1
Ans. 8.12

Qu. Given Cc1cc(N(C)C(=O)[C@H]2CC[C@H](Oc3ccc(F)cc3)CC2)ccc1CN1CCNCC1 , respond with its pEC50.
Ans. 7.34

Qu. Entry CCOCc1cccc(N[C@H]2CC[C@H](C(=O)N(C)c3ccc(CN4CCN[C@@H](C)C4)c(C)c3)CC2)c1 needs its pEC50 filled in; supply it.
Ans. 8.59

Qu. Recall and state the measured pEC50 for CC[C@H]1CN(Cc2ccc(N(C)C(=O)[C@H]3CC[C@H](Oc4ccnc(C#N)c4)CC3)cc2C)CCN1 .
Ans. 7.96

Qu. Write down pEC50 measured for item Cc1cc(N(C)C(=O)[C@H]2CC[C@H](Oc3cccc(CC(C)(C)O)c3)CC2)ccc1CN1CCN[C@@H](C)C1
Ans. 8.37

Qu. // Input: Cc1cc(CN2CCN[C@@H](C)C2)ccc1N(C)C(=O)[C@H]1CC[C@H](Oc2ccc(F)cc2)CC1 . Output its pEC50 only.
Ans. 6.62

Qu. Note pEC50 for the molecule shown: C[C@H]1CN(Cc2ccc(-c3cccnc3N3CCC(Nc4cccc(F)c4)CC3)cc2)CCN1
Ans. 7.74

Qu. State its pEC50: Cc1cc(N(C)C(=O)[C@H]2CC[C@H](Oc3ccc(F)cc3)CC2)ccc1CN1CCN[C@@H](C)C1
Ans. 8.68

Qu. Using the record for Cc1cc(N(C)C(=O)[C@H]2CC[C@H](Oc3ccc(Cl)c(CO)c3)CC2)ccc1CN1CCN[C@@H](C)C1 , state its measured pEC50.
Ans. 8.74

Qu. Return pEC50 (reported value) for this molecule: C[C@H]1CN(Cc2ccc(N(C)C(=O)[C@H]3CC[C@H](Oc4ccc(F)cc4)CC3)cc2)CCN1
Ans. 7.26

Qu. Quick one: give measured pEC50 for Cc1cc(N(C)C(=O)[C@H]2CC[C@H](Oc3cccc(CC(=O)NC(C)C)c3)CC2)ccc1CN1CCN[C@@H](C)C1
Ans. 8.80

Qu. Note down pEC50 recorded for CC[C@H]1CN(Cc2ccc(N(C)C(=O)[C@H]3CC[C@H](Oc4ccc(F)cc4)CC3)cc2C)CCN1
Ans. 6.46

Qu. Return the recorded pEC50 value; entry: C[C@H]1CN(Cc2ccc(N(C)C(=O)[C@H]3CC[C@H](Oc4ccc(F)cc4)CC3)cc2Cl)CCN1
Ans. 8.70

Qu. Supply measured pEC50 of C[C@@H]1CN(Cc2ccc(-c3cccnc3C(=O)N3CCC(Cc4ccc(F)cc4)CC3)cc2)C[C@H](C)N1 in your reply.
Ans. 7.29

Qu. Tell me pEC50 reported for C[C@H]1CN(Cc2ccc(CC(=O)N3CCC(Nc4cccc(F)c4)CC3)cc2)CCN1
Ans. 6.01

Qu. Please give the documented pEC50 of Cc1cc(N(C)C(=O)[C@H]2CC[C@H](Oc3cccc(CCO)c3)CC2)ccc1CN1CCN[C@@H](C)C1
Ans. 8.33
